Each item that follows carries a reported GI50.
System: UACC-257
Method description: NCI tumour cell line growth inhibition, 48 h
Calls of active or inactive are those of the source. Cut-off read from the data, not from the text of the source: active = GI50 up to about 1.1 µM and inactive = higher.

Molecule	Target under test	GI50
COC1OC(CBr)C(OC(=O)c2ccccc2)C(OS(=O)(=O)c2ccc(C)cc2)C1Br (configuration not stated)	UACC-257	> 100 µM (inactive)
O=C1/C(=C/c2ccc(O)cc2)CCC1CNc1ccc(Cl)cc1 (configuration not stated)	UACC-257	3.05 µM (inactive)
COC(=O)CC1CC2(C(=O)OC)c3[nH]c4ccccc4c3CCN2C1=O (configuration not stated)	UACC-257	> 100 µM (inactive)
O=C1Nc2ccccc2/C1=C\c1c(Cl)n(-c2ccccc2)c2ccccc12	UACC-257	9.2 µM (inactive)
Nc1nnc2oc3ccc4ccccc4c3cc1-2	UACC-257	28.2 µM (inactive)
CC(C)(C)N(Cc1ccoc1)C(=O)/C=C\[S+]([O-])c1ccccc1 (configuration not stated)	UACC-257	19.9 µM (inactive)
CC(=O)OCC(OC(C)=O)C(OC(C)=O)C(OC(C)=O)C(/C=N\Nc1nc2ccccc2c(=O)[nH]1)OC(C)=O (configuration not stated)	UACC-257	> 100 µM (inactive)
O=C(CN1CCN(Cc2ccccc2)CC1)c1ccc2[nH]c(=O)oc2c1	UACC-257	> 100 µM (inactive)
Cc1sccc1C(=S)Nc1ccc(Cl)c(/C=N/OC(C)(C)C)c1	UACC-257	17 µM (inactive)
Fc1ccc(OCc2nc3cc(C(F)(F)F)ccc3nc2-c2ccccc2)cc1	UACC-257	> 23.8 µM (inactive)
CC(=O)c1ccccc1NCC(=O)Nn1cnc2ccc(S(=O)(=O)Nc3ccccc3C(C)=O)cc2c1=O	UACC-257	> 100 µM (inactive)
CCOc1ccc(/N=N/c2c(-c3ccccc3)nn(C(=O)CC(=O)Nc3ccccc3Cl)c2-c2ccccc2)cc1	UACC-257	80.4 µM (inactive)
CCC1(CC)C(=O)NN(C(=O)c2ccc(Cl)cc2)C1=O	UACC-257	> 100 µM (inactive)
C[N+](C)([O-])C12CC3CC(CC(C3)C1)C2	UACC-257	39.2 µM (inactive)
CCOC(=O)/C(C#N)=C/c1ccc(CO)o1	UACC-257	> 100 µM (inactive)
COc1cccc(C[C@H]2COC(=O)[C@]2(O)Cc2cccc(OC)c2)c1	UACC-257	> 100 µM (inactive)
CCOC(=O)C1C(=O)C(C(=O)OCC)C(c2ccccc2)N(C)C1c1ccccc1 (configuration not stated)	UACC-257	> 100 µM (inactive)
CC1(C)C(=O)CCC(=O)C(C)(C)C2=CC=C(O2)C(C)(C)C(=O)CCC(=O)C(C)(C)C2=CC=C1O2	UACC-257	> 100 µM (inactive)
COc1c(-c2nc3ccc(N4CCN(C)CC4)cc3[nH]2)cc(OC)c2[nH]c(COC(C)=O)nc12	UACC-257	53.5 µM (inactive)
Cc1ccc(/C=C/C(=O)C(C)C)cc1	UACC-257	53.6 µM (inactive)
O=C1C(=O)N(C2CCCCC2)C(=S)N1C1CCCCC1	UACC-257	> 100 µM (inactive)
C=C=C(C)[Si](C)(C)C	UACC-257	> 100 µM (inactive)
